- Read-out: Pyruvate Dehydrogenase Kinase 4 (PDK4), PDK4 (gene 5166)
- assay: LTEA_HepaRG_PDK4: Life Technologies and Expression Analysis (LTEA) Assay for Pyruvate Dehydrogenase Kinase 4 (PDK4) using HepaRG (AID 2283525)
- run conditions: mRNA level, 48 h; actives raise or lower the signal
- Procedure: LTEA_HepaRG is a cell based, multiplexed-readout assay that uses HepaRG, a human liver cell line, with measurements taken at 48 hours after chemical dosing on a 96-well plate.LTEA_HepaRG_PDK4 is one of 102 assay component(s) measured in the LTEA HepaRG cell culture assay. It is a marker of Diseases associated with PDK4 including Platelet Glycoprotein Iv Deficiency and Diabetes Mellitus, Noninsulin-Dependent.Data from the assay component LTEA_HepaRG_PDK4 was analyzed into 1 endpoint. […]
Activity calls are given as the source filed them. Rule for the calls: active = hit-call score of the fitted dose curve at least 0.9, where 1 is the maximum; inactive = score below 0.9.
Outcome codes: active, inactive

- O=C(O)COc1nc(Cl)c(Cl)cc1Cl: active
- C#CCOS(=O)OC1CCCCC1Oc1ccc(C(C)(C)C)cc1 (stereo not given): active
- CCCCNC(=O)n1c(NC(=O)OC)nc2ccccc21: inactive
- Cc1c(F)c(F)c(COC(=O)C2C(/C=C(\Cl)C(F)(F)F)C2(C)C)c(F)c1F (stereo not given): inactive
- COC(=O)c1ccccc1C(=O)OC: inactive
- C=CCC1=C(C)[C@@H](OC(=O)[C@@H]2[C@@H](C=C(C)C)C2(C)C)CC1=O: inactive
- CCOC(=O)CC(SP(=S)(OC)OC)C(=O)OCC (stereo not given): inactive
- Oc1ccccc1-c1ccccc1: inactive
- CCOc1cc(Oc2ccc(C(F)(F)F)cc2Cl)ccc1[N+](=O)[O-]: inactive
- CCc1nn(C)c(C(=O)NCc2ccc(C(C)(C)C)cc2)c1Cl: active
- N#Cc1nn(-c2c(Cl)cc(C(F)(F)F)cc2Cl)c(N)c1S(=O)C(F)(F)F (stereo not given): active
- CCOP(=S)(OCC)SCn1c(=O)oc2cc(Cl)ccc21: inactive
- CC(C)Oc1cc(-n2nc(C(C)(C)C)oc2=O)c(Cl)cc1Cl: active
- CC(C)(C)c1ccc(CSc2cnn(C(C)(C)C)c(=O)c2Cl)cc1: active
- COC(=O)N(OC)c1ccccc1COc1ccn(-c2ccc(Cl)cc2)n1: active
- O=C(Nc1ccccc1)Nc1ccnc(Cl)c1: inactive
- CCCCC(CC)COC(=O)c1ccccc1C(=O)OCC(CC)CCCC (stereo not given): inactive
- OC(c1ccc(Cl)cc1)(c1cncnc1)c1ccccc1Cl (stereo not given): active
- CS/C(C)=N/OC(=O)N(C)SN(C)C(=O)O/N=C(\C)SC: inactive
- Cc1cc(Cl)ccc1OCC(=O)O: active
- N#Cc1cc(Br)c(O)c(Br)c1: active
- CC(C)C1(C)N=C(c2nc3ccccc3cc2C(=O)O)NC1=O (stereo not given): inactive
- CCCC1COC(Cn2cncn2)(c2ccc(Cl)cc2Cl)O1 (stereo not given): active
- Cc1ccc(-c2c(Cl)nc(C#N)n2S(=O)(=O)N(C)C)cc1: active
- CCNc1nc(Cl)nc(NCC)n1: inactive

----------
- Read-out: Interleukin 6 Receptor (IL6R), IL6R (gene 3570)
- assay: LTEA_HepaRG_IL6R: Life Technologies and Expression Analysis (LTEA) Assay for Interleukin 6 Receptor (IL6R) using HepaRG (AID 2283510)
- run conditions: mRNA level, 48 h; actives raise or lower the signal
Calls of active or inactive are those of the source. How the source made its calls: active means hit-call score of the fitted dose curve at least 0.9, where 1 is the maximum; inactive means score below 0.9.
Outcome codes: YES (active), NO (inactive)

* O=C(Nc1ccccc1)Nc1ccnc(Cl)c1 | YES
* Oc1ccccc1-c1ccccc1 | NO
* CCNc1nc(Cl)nc(NC(C)C)n1 | NO
* CCc1nn(C)c(C(=O)NCc2ccc(C(C)(C)C)cc2)c1Cl | NO
* CN(C)C(=S)SSC(=S)N(C)C | NO
* CC(C)(C)c1ccc(CSc2cnn(C(C)(C)C)c(=O)c2Cl)cc1 | NO
* CS/C(C)=N/OC(=O)N(C)SN(C)C(=O)O/N=C(\C)SC | NO
* COc1cnc(OC)n2nc(NS(=O)(=O)c3c(OCC(F)F)cccc3C(F)(F)F)nc12 | NO
* CCOC(=O)CC(SP(=S)(OC)OC)C(=O)OCC (stereo not drawn) | NO
* CO/C=C(/C(=O)OC)c1ccccc1Oc1cc(Oc2ccccc2C#N)ncn1 | NO
* CNC(=S)S | NO
* CC1=C(C(=O)Nc2ccccc2)SCCO1 | YES
* CCON=C(CC)C1=C(O)CC(c2c(C)cc(C)cc2C)CC1=O (stereo not drawn) | NO
